Molecular target: UP1 (UniProt P09651-2 1-196)
Sequence (P09651 1-196): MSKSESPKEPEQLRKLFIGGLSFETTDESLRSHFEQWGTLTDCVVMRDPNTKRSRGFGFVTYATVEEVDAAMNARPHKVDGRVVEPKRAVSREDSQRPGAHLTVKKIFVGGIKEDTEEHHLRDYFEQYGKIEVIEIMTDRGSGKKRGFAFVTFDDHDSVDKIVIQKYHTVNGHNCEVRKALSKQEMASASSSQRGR
Assay: ITC; 100 mM KCl; ITC/CD: 20 mM Tris-Cl pH 8, 100 mM NaCl or KCl, 25 C; NMR: 10 mM sodium or potassium phosphate pH 6.5, 100 mM NaCl or KCl, 298 K
Conditions: protein: recombinant; tags: C-terminal 6xHis (pET28a); chain copies: 2; intramolecular G4 (monomeric)
observed-property: pKd
Convention used: pKd is expressed as -log10 of the molar concentration.

-- ask So what does the record say about pKd for AGGGTTAGGGTTAGGGTTAGGG (structured_DNA) [Tel22 G-quadruplex] ?
-- reply 5.25

The measurements presented in this section are drawn from paper PMC6212785.
